I'd be grateful if you could share measured inhibition for these entries.
Target: Amyloid-beta precursor protein (Homo sapiens)
Sequence (P05067 whole entry): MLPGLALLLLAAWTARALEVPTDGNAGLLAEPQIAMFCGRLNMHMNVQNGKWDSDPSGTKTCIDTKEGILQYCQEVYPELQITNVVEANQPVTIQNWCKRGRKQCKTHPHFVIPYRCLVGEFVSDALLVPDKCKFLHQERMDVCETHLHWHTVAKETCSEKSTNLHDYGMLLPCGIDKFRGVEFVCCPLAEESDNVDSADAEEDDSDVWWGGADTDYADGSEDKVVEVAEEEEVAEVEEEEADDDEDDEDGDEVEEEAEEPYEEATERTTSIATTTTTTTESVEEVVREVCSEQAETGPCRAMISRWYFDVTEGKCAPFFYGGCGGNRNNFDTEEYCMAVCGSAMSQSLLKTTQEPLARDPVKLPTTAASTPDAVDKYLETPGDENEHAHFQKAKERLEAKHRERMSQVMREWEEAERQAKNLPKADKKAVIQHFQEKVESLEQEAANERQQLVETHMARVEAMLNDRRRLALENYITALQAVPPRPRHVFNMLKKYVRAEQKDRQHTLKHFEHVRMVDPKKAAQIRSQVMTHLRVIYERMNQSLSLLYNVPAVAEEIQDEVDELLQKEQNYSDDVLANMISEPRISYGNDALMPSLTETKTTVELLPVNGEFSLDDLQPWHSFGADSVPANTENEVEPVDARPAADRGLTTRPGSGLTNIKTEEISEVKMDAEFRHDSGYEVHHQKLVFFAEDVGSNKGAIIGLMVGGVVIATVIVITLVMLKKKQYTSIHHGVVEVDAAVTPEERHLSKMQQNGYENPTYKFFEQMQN
Assay: Inhibition of amyloid beta (1 to 42) (unknown origin) self aggregation at 50 uM relative to control
Quick note: give the figure in %, leave out the unit.

get_value(item= O=c1ccoc(/C=C/c2ccc(O)cc2)c1O , readout=inhibition) returns 36.7

get_value(item= CN1CCN(c2ccc(/C=C/c3occc(=O)c3O)cc2)CC1 , readout=inhibition) returns 30.6

get_value(item= O=c1ccoc(/C=C/c2ccccc2F)c1O , readout=inhibition) returns 19.9

get_value(item= O=c1ccoc(/C=C/c2ccc(C(F)(F)F)cc2)c1O , readout=inhibition) returns 30.5

get_value(item= O=c1ccoc(/C=C/c2ccc(F)cc2)c1O , readout=inhibition) returns 8.6

get_value(item= Cc1ccc(/C=C/c2occc(=O)c2O)cc1 , readout=inhibition) returns 28.6

get_value(item= O=c1ccoc(/C=C/c2ccc(-c3ccccc3)cc2)c1O , readout=inhibition) returns 52
